Sourced from patent US7105310B1

targetDesc: P450:Ru complex (Pseudomonas putida)
Sequence (P00183 2-415 limits assumed, one chain of several): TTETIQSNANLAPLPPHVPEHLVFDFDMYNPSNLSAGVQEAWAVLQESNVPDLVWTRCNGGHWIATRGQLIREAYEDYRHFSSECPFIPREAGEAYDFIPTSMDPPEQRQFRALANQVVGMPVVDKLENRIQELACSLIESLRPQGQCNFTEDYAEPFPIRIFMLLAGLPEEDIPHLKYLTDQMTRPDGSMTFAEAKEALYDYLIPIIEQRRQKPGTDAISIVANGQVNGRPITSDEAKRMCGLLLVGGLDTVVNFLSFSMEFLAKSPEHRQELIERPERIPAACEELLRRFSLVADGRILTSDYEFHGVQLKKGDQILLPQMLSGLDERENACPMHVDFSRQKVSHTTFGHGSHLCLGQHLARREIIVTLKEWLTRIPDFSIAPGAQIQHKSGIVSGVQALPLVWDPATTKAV
assay: Camphor titration into stoichiometric P450:Ru—C10 (UV-vis)
recordedEndpoint: Kd (µM)
Please reply with the bare figure in µM and do not write the unit itself.

Q: Tell me Kd reported for CC12CCC(CC1=O)C2(C)C (stereo not shown)
Result: 3.6
